# system.name: HLA-B*57:01
# experiment.notes: IEDB peptide-MHC binding, purified MHC/direct/fluorescence; filed as Kd, often an IC50 or EC50 that approximates it; bounds were set here for any values at or beyond the usual limits of such assays
# study.conditions: source organism: Escherichia coli O157:H7
pKd: −log10 of the molar value.
measured.metric: pKd

>  <primary.sequence>
GEIFGLLGP

>  <system.name>
HLA-B*57:01

>  <measured.metric>
pKd

>  <recorded.value>
≤ 4.70

$$$$

* * *

# system.name: HLA-A*02:19
# experiment.notes: IEDB peptide-MHC binding, purified MHC/competitive/fluorescence; filed as Kd, often an IC50 or EC50 that approximates it; bounds were set here for any values at or beyond the usual limits of such assays
# study.conditions: source organism: Giardia lamblia ATCC 50803
Recorded Kd for the following sequences
measured.metric: Kd (nM)

>  <primary.sequence>
TEDDWITYI

>  <measured.metric>
Kd

>  <unit.symbol>
nM

>  <qualifying.sign>
≥

>  <recorded.value>
20000

$$$$
>  <primary.sequence>
NAMGADYYA

>  <measured.metric>
Kd

>  <unit.symbol>
nM

>  <qualifying.sign>
=

>  <recorded.value>
15.1

$$$$

* * *

Recorded pKd for the following sequences
# system.name: HLA-B*35:01
# experiment.notes: IEDB peptide-MHC binding, purified MHC/competitive/radioactivity; filed as Kd, often an IC50 or EC50 that approximates it; bounds were set here for any values at or beyond the usual limits of such assays
# study.conditions: source organism: Vaccinia virus WR
pKd: −log10 of the molar value.
measured.metric: pKd

>  <primary.sequence>
MTIREFPRK

>  <system.name>
HLA-B*35:01

>  <measured.metric>
pKd

>  <qualifying.sign>
≤

>  <recorded.value>
4.11

$$$$
>  <primary.sequence>
MPVETLFGSY

>  <system.name>
HLA-B*35:01

>  <measured.metric>
pKd

>  <qualifying.sign>
=

>  <recorded.value>
8.48

$$$$
>  <primary.sequence>
KPESRPFDLI

>  <system.name>
HLA-B*35:01

>  <measured.metric>
pKd

>  <qualifying.sign>
≤

>  <recorded.value>
4.16

$$$$
>  <primary.sequence>
FPANINDKQI

>  <system.name>
HLA-B*35:01

>  <measured.metric>
pKd

>  <qualifying.sign>
=

>  <recorded.value>
6.42

$$$$
>  <primary.sequence>
MPEKRNVVVV

>  <system.name>
HLA-B*35:01

>  <measured.metric>
pKd

>  <qualifying.sign>
=

>  <recorded.value>
5.36

$$$$
>  <primary.sequence>
PPFTQHLLNI

>  <system.name>
HLA-B*35:01

>  <measured.metric>
pKd

>  <qualifying.sign>
≤

>  <recorded.value>
4.16

$$$$
>  <primary.sequence>
IPDELIDVL

>  <system.name>
HLA-B*35:01

>  <measured.metric>
pKd

>  <qualifying.sign>
=

>  <recorded.value>
6.59

$$$$
>  <primary.sequence>
LPMIIGEPI

>  <system.name>
HLA-B*35:01

>  <measured.metric>
pKd

>  <qualifying.sign>
=

>  <recorded.value>
7.19

$$$$

* * *

# system.name: HLA-A*01:01
# experiment.notes: IEDB peptide-MHC binding, purified MHC/direct/fluorescence; filed as Kd, often an IC50 or EC50 that approximates it; bounds were set here for any values at or beyond the usual limits of such assays
# study.conditions: source organism: Vibrio cholerae
measured.metric: Kd

>  <primary.sequence>
KEDPGDHIF

>  <measured.metric>
Kd

>  <recorded.value>
≥ 20 µM

$$$$
>  <primary.sequence>
IPISGRITA

>  <measured.metric>
Kd

>  <recorded.value>
≥ 20 µM

$$$$
